test: Unbound plasma concentration in the PET/CT study; type: in vivo; details: human, Subject C320, 320 mg
MEASUREMENT_LABEL: concentration at 4 h (nM)

>  <COMPOUND>
COCCN(CCCCc1ccc2c(n1)NCCC2)CC[C@H](Nc1ncnc2ccccc12)C(=O)O [Compound 5]

>  <MEASUREMENT_LABEL>
concentration at 4 h

>  <RECORDED_NUMBER>
96.5

$$$$

---

target: recombinant human integrin αvβ6 (Homo sapiens (Human), UniProt P06756+P18564); assay: Solid phase integrin αvβ6 binding assay; settings: IC50 presented in four ranges; read-out: αvβ6 Inhibition IC50 (nM) - range
Sequence (P06756 31-889): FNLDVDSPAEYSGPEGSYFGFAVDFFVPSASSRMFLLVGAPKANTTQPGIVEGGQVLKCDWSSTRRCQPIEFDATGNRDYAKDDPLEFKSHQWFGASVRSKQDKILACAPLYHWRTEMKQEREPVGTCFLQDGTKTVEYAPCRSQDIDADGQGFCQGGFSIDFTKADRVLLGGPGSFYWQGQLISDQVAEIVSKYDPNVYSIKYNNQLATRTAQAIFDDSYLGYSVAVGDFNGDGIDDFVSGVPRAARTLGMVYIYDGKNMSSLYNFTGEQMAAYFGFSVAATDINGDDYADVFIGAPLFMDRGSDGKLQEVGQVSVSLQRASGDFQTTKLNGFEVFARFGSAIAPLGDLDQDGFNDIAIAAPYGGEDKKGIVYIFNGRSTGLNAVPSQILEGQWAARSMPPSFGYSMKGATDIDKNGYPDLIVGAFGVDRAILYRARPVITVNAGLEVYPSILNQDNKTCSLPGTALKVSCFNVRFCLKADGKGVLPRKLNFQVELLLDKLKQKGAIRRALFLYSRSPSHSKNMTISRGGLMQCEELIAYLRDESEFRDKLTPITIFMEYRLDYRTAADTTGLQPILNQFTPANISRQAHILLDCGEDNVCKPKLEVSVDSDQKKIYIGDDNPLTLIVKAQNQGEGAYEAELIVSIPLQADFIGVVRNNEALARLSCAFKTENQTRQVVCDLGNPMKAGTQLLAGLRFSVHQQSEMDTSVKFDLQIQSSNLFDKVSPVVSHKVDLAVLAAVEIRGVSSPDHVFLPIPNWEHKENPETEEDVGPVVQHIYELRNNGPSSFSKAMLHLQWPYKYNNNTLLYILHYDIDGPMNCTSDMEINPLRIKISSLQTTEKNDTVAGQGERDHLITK
Sequence (P06756 890-992 partner): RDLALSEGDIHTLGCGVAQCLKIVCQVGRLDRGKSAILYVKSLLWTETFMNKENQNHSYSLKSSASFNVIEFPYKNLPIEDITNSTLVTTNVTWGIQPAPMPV
Sequence (P18564 22-707): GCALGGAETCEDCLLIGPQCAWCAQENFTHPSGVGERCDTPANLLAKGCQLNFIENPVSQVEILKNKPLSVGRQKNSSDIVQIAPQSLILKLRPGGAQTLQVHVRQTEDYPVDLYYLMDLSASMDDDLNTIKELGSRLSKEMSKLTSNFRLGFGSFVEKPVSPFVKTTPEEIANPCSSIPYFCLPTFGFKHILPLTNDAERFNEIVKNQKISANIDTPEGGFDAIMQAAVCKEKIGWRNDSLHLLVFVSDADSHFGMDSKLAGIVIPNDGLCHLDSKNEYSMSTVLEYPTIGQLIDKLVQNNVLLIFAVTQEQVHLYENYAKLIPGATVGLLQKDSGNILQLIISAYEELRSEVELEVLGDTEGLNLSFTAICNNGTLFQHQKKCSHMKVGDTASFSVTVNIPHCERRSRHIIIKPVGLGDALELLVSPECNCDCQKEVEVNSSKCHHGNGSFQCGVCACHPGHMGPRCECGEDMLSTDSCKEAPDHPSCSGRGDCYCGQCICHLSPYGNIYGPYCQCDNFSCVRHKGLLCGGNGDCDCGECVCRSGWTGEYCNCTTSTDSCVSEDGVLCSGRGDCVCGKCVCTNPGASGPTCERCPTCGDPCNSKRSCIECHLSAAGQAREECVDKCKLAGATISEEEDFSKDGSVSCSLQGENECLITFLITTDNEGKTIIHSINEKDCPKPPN
MEASUREMENT_LABEL: IC50

>  <MOLECULE>
O=C(O)[C@H](CCN(CCCCc1ccc2c(n1)NCCC2)CCOc1ccc(F)cc1)Nc1ncnc2[nH]ncc12 [compound 143]

>  <MEASUREMENT_LABEL>
IC50

>  <RESULT>
50 to 250 nM

$$$$
>  <MOLECULE>
O=C(O)[C@H](CCN(CCCCc1ccc2c(n1)NCCC2)C1CC(F)(F)C1)Nc1ncnc2ccccc12 [compound 9]

>  <MEASUREMENT_LABEL>
IC50

>  <RESULT>
> 1000 nM

$$$$
>  <MOLECULE>
N#Cc1cnc(N[C@@H](CCN(CCCCc2ccc3c(n2)NCCC3)CCOc2ccc(F)cc2)C(=O)O)nc1 [compound 138]

>  <MEASUREMENT_LABEL>
IC50

>  <RESULT>
< 50 nM

$$$$
>  <MOLECULE>
O=C(O)[C@H](CCN(CCCCc1ccc2c(n1)NCCC2)CCOc1ccccc1)Nc1ncnc2[nH]ncc12 [compound 90]

>  <MEASUREMENT_LABEL>
IC50

>  <RESULT>
< 50 nM

$$$$
>  <MOLECULE>
O=C(O)[C@H](CCN(CCCCc1ccc2c(n1)NCCC2)CCC(F)F)Nc1ncc(C(F)(F)F)cn1 [compound 132]

>  <MEASUREMENT_LABEL>
IC50

>  <RESULT>
50 to 250 nM

$$$$
>  <MOLECULE>
CO[C@H](C)CN(CCCCc1ccc2c(n1)NCCC2)CC[C@H](Nc1cc(-c2ccccc2)ncn1)C(=O)O [compound 128]

>  <MEASUREMENT_LABEL>
IC50

>  <RESULT>
> 1000 nM

$$$$
>  <MOLECULE>
Cc1ncccc1OCCN(CCCCc1ccc2c(n1)NCCC2)CCC(Nc1ncnc2ccccc12)C(=O)O (stereo not drawn) [compound 52]

>  <MEASUREMENT_LABEL>
IC50

>  <RESULT>
< 50 nM

$$$$
>  <MOLECULE>
O=C(O)[C@H](CCN(CCCCc1ccc2c(n1)NCCC2)CCOc1ccccc1)Nc1ccnc(C(F)(F)F)n1 [compound 92]

>  <MEASUREMENT_LABEL>
IC50

>  <RESULT>
< 50 nM

$$$$
>  <MOLECULE>
CS(=O)(=O)CCN(CCCCc1ccc2c(n1)NCCC2)CC[C@H](Nc1ncc(C(F)(F)F)cn1)C(=O)O [compound 102]

>  <MEASUREMENT_LABEL>
IC50

>  <RESULT>
> 1000 nM

$$$$
>  <MOLECULE>
CO[C@H](C)CN(CCCCc1ccc2c(n1)NCCC2)CC[C@H](Nc1ncnc2[nH]ncc12)C(=O)O [compound 71]

>  <MEASUREMENT_LABEL>
IC50

>  <RESULT>
< 50 nM

$$$$
>  <MOLECULE>
O=C(O)[C@H](CCN(CCO)CCCCc1ccc2c(n1)NCCC2)Nc1ncnc2ccccc12 [compound 75]

>  <MEASUREMENT_LABEL>
IC50

>  <RESULT>
< 50 nM

$$$$
>  <MOLECULE>
COCCN(CCCCc1ccc2c(n1)NCCC2)CC[C@H](Nc1ccnc(C(F)(F)F)n1)C(=O)O [compound 24]

>  <MEASUREMENT_LABEL>
IC50

>  <RESULT>
< 50 nM

$$$$
>  <MOLECULE>
O=C(O)[C@H](CCN(CCCCc1ccc2c(n1)NCCC2)CC(F)F)Nc1ncnc2ccccc12 [compound 8]

>  <MEASUREMENT_LABEL>
IC50

>  <RESULT>
50 to 250 nM

$$$$
>  <MOLECULE>
CO[C@H](C)CN(CCCCc1ccc2c(n1)NCCC2)CC[C@H](Nc1nc(C)nc2cc(F)ccc12)C(=O)O [compound 65]

>  <MEASUREMENT_LABEL>
IC50

>  <RESULT>
< 50 nM

$$$$
>  <MOLECULE>
CO[C@H](C)CN(CCCCc1ccc2c(n1)NCCC2)CC[C@H](Nc1ncnc2c1cnn2C)C(=O)O [compound 74]

>  <MEASUREMENT_LABEL>
IC50

>  <RESULT>
< 50 nM

$$$$

---

Property: IC50; scope: individual compounds
target: recombinant human integrin αvβ6 (Homo sapiens (Human), UniProt P06756+P18564); experiment: Solid phase integrin αvβ6 binding assay; conditions: IC50 presented in four ranges; read-out: αvβ6 Inhibition IC50 (nM) - range

>  <SUBSTANCE_SMILES>
Cc1cc(N[C@@H](CCN(CCCCc2ccc3c(n2)NCCC3)CC(F)F)C(=O)O)nc(-c2ccncc2)n1

>  <IC50>
250 to 1000 nM

$$$$
>  <SUBSTANCE_SMILES>
O=C(O)[C@H](CCN(CCCCc1ccc2c(n1)NCCC2)CCOc1ccccc1)Nc1cc(-c2ccccc2)ncn1

>  <IC50>
< 50 nM

$$$$
>  <SUBSTANCE_SMILES>
Cc1cc(C)n(CCN(CCCCc2ccc3c(n2)NCCC3)CC[C@H](Nc2ncnc3ccccc23)C(=O)O)n1

>  <IC50>
< 50 nM

$$$$
>  <SUBSTANCE_SMILES>
O=C(O)[C@H](CCN(CCCCc1ccc2c(n1)NCCC2)CCOc1ccccc1)Nc1ncnc2ccccc12

>  <IC50>
< 50 nM

$$$$
>  <SUBSTANCE_SMILES>
CO[C@H](C)CN(CCCCc1ccc2c(n1)NCCC2)CC[C@H](Nc1nccnc1C#N)C(=O)O

>  <IC50>
< 50 nM

$$$$
>  <SUBSTANCE_SMILES>
COC[C@@H](F)CN(CCCCc1ccc2c(n1)NCCC2)CC[C@H](Nc1ncnc2ccccc12)C(=O)O

>  <IC50>
< 50 nM

$$$$
>  <SUBSTANCE_SMILES>
O=C(O)[C@H](CCN(CCCCc1ccc2c(n1)NCCC2)CC1(F)COC1)Nc1ncnc2ccccc12

>  <IC50>
50 to 250 nM

$$$$

---

biological target: recombinant human integrin αvβ6 (Homo sapiens (Human), UniProt P06756+P18564); experiment: Solid phase integrin αvβ6 binding assay; conditions: IC50 presented in four ranges; read-out: αvβ6 Inhibition IC50 (nM) - range

>  <SUBSTANCE_SMILES>
COCCN(CCCCc1ccc2c(n1)NCCC2)CC[C@H](Nc1cc(C(F)(F)F)nc(C)n1)C(=O)O

>  <IC50>
< 50 nM

$$$$
>  <SUBSTANCE_SMILES>
COCCN(CCCCc1ccc2c(n1)NCCC2)CC[C@H](Nc1ncnc2c(Cl)cccc12)C(=O)O

>  <IC50>
< 50 nM

$$$$
>  <SUBSTANCE_SMILES>
Cn1ncc2c(N[C@@H](CCN(CCCF)CCCCc3ccc4c(n3)NCCC4)C(=O)O)ncnc21

>  <IC50>
< 50 nM

$$$$
>  <SUBSTANCE_SMILES>
COCCN(CCCCc1ccc2c(n1)NCCC2)CC[C@H](Nc1ncnc2ccc(F)cc12)C(=O)O

>  <IC50>
< 50 nM

$$$$
>  <SUBSTANCE_SMILES>
O=C(O)[C@H](CCN(CCCCc1ccc2c(n1)NCCC2)CCOC(F)F)Nc1ncnc2ccccc12

>  <IC50>
< 50 nM

$$$$
>  <SUBSTANCE_SMILES>
COC[C@@H](F)CN(CCCCc1ccc2c(n1)NCCC2)CC[C@H](Nc1ncnc2c1cnn2C)C(=O)O

>  <IC50>
< 50 nM

$$$$
>  <SUBSTANCE_SMILES>
O=C(O)[C@H](CCN(CCCCc1ccc2c(n1)NCCC2)CC(F)F)Nc1nc(-c2cccnc2)nc2ccccc12

>  <IC50>
250 to 1000 nM

$$$$
>  <SUBSTANCE_SMILES>
CO[C@H](C)CN(CCCCc1ccc2c(n1)NCCC2)CC[C@H](Nc1cc(-n2cccn2)ncn1)C(=O)O

>  <IC50>
< 50 nM

$$$$
>  <SUBSTANCE_SMILES>
COCCN(CCCCc1ccc2c(n1)NCCC2)CC[C@H](Nc1ncnc2c(C(F)(F)F)cccc12)C(=O)O

>  <IC50>
< 50 nM

$$$$
>  <SUBSTANCE_SMILES>
O=C(O)[C@H](CCN(CCCCc1ccc2c(n1)NCCC2)CC(F)F)Nc1ncc(C(F)(F)F)cn1

>  <IC50>
> 1000 nM

$$$$
>  <SUBSTANCE_SMILES>
COCCN(CCCCc1ccc2c(n1)NCCC2)CC[C@H](Nc1ncnc2cccc(F)c12)C(=O)O

>  <IC50>
< 50 nM

$$$$
>  <SUBSTANCE_SMILES>
O=C(O)[C@H](CCN(CCCCc1ccc2c(n1)NCCC2)C1CC1)Nc1ncc(C(F)(F)F)cn1

>  <IC50>
< 50 nM

$$$$
>  <SUBSTANCE_SMILES>
CS(=O)(=O)CCN(CCCCc1ccc2c(n1)NCCC2)CC[C@H](Nc1ncnc2ccccc12)C(=O)O

>  <IC50>
< 50 nM

$$$$
>  <SUBSTANCE_SMILES>
O=C(O)[C@H](CCN(CCCCc1ccc2c(n1)NCCC2)CC(F)F)Nc1ncc(F)cn1

>  <IC50>
> 1000 nM

$$$$
>  <SUBSTANCE_SMILES>
CO[C@H](C)CN(CCCCc1ccc2c(n1)NCCC2)CC[C@H](Nc1ncnc2cn[nH]c12)C(=O)O

>  <IC50>
< 50 nM

$$$$
>  <SUBSTANCE_SMILES>
O=C(O)[C@H](CCN(CCCCc1ccc2c(n1)NCCC2)CCOc1ccc(F)cc1)Nc1ncc(C(F)(F)F)cn1

>  <IC50>
< 50 nM

$$$$
